// data source = PubChem BioAssay (NCI)

System: EKVX NSCLC
Experiment: NCI tumour cell line growth inhibition, 48 h
endpoint: TGI

Here are 5 molecules together with their reported answers.
COc1cc(/C=C2\C[C@H]3[C@@H]4CC=C5C[C@@H](N6CCCC6)CC[C@]5(C)[C@H]4CC[C@]3(C)[C@H]2O)cc(OC)c1OC: 30.2 µM
COc1ccccc1/C=C1\COc2ccc(O)c(O)c2C1=O: 46.1 µM
CC(=O)O[C@@H]1C=CC(=O)C2(CC(=O)O[C@@H]2/C=C(\C)CCC=C(C)C)C1 (stereo not given in full): 7.87 µM
CC1CN=C(Nc2cccc(C(F)(F)F)c2)S1 (stereo not given): > 100 µM
[N-]=[N+]=Nc1ccc(S(=O)(=O)Oc2cc(OS(=O)(=O)c3ccc(N=[N+]=[N-])cc3)cc(OS(=O)(=O)c3ccc(N=[N+]=[N-])cc3)c2)cc1: > 100 µM

Qu. Record request: TGI value, item `CC(=O)NNc1nc(C)c(C(/C=C/c2ccc(/C=C/C(=N\NC(=O)c3ccncc3)c3sc(NNC(C)=O)nc3C)cc2)=N/NC(=O)c2ccncc2)s1`
Ans. > 100 µM

Qu. Record request: TGI value, item `Cc1cc(S(=O)(=O)Nc2nc3ccsc3c(=O)n2N)c(S)cc1Cl`
Ans. > 100 µM

Qu. Record request: TGI value, item CCCC1NC(C#N)(C#N)C(CCC)NC1(C#N)C#N (stereo not given)
Ans. > 100 µM

Qu. Record request: TGI value, item COCCNC(=O)C1C(=O)N(CCOC)C(=O)/C1=N/N (stereo not given)
Ans. > 100 µM

Qu. Record request: TGI value, item `CCCCc1ccc2nc(NC(=O)OC)[nH]c2c1`
Ans. > 100 µM

Qu. Record request: TGI value, item `O=C(Nc1ccc(Cl)c(Cl)c1)Nc1ccc(Cl)c([N+](=O)[O-])c1`
Ans. 7.35 µM

Qu. Record request: TGI value, item `Oc1ccc2c(c1)-c1c(c3cc(O)ccc3n1CCN1CCOCC1)CC2`
Ans. > 100 µM

Qu. Record request: TGI value, item `COc1cc(Oc2nc3ccccc3nc2C(=O)O)cc(OC)c1OC`
Ans. > 100 µM

Qu. Record request: TGI value, item `O=C(CCCCCCc1nc2ccc(Br)cc2[nH]1)NO`
Ans. 97.1 µM

Qu. Record request: TGI value, item COC(c1ccsc1)C(C#N)(C#N)N=Cc1ccsc1 (stereo not given)
Ans. 32.9 µM

###

TGI values by entry
System: SF-539 CNS
Assay: NCI tumour cell line growth inhibition, 48 h

Qu. Recorded TGI for COc1ccc([C@H]2c3cc(OC)c(OC)cc3C=C(C=O)C2CO)cc1OC (stereo partly specified) with SF-539 CNS, please?
Ans. > 100 µM

Qu. Recorded TGI for `O=C(Nc1ccc(Cl)c(Cl)c1)Nc1ccc(Cl)c([N+](=O)[O-])c1` with SF-539 CNS, please?
Ans. 5.51 µM

Qu. Recorded TGI for `O=C(CCCCCCc1nc2ccc(Br)cc2[nH]1)NO` with SF-539 CNS, please?
Ans. 31.3 µM

Qu. Recorded TGI for `COc1ccc(-c2oc3ccc(C)cc3c(=O)c2O)cc1` with SF-539 CNS, please?
Ans. > 100 µM

Qu. Recorded TGI for `C=Nc1ccc([N+](=O)[O-])cc1` with SF-539 CNS, please?
Ans. > 100 µM

Qu. Recorded TGI for `O=C(Nc1ccccc1)c1cc2c(cc1Cl)Sc1nccn1S2(=O)=O` with SF-539 CNS, please?
Ans. > 83.6 µM
